# Test system: LOX IMVI
# measurement_notes: NCI tumour cell line growth inhibition, 48 h
Active and inactive are the calls of the source. Cut-off read from the data, not from the text of the source: active = GI50 up to about 1.1 µM and inactive = higher.
Form field: GI50 (one value per entry).

Example entries and their recorded answers appear below.
compound: Cc1cc2c3c(c1)S(=O)(=O)c1cc(Cl)ccc1N3CCC2
value_reported: > 100 µM (inactive)

compound: CN(C)c1ccc(/C=N\NC(=O)Nc2cccc3ccccc23)cc1
value_reported: 4.15 µM (inactive)

compound: CC1CC(=O)NC2CC1C2(C)C (stereo not drawn)
value_reported: > 100 µM (inactive)

compound: CCOC(=O)C(Cc1ccc(O)cc1)Nc1nc(=O)c2c(=O)oc(Cl)cc2o1 (stereo not drawn)
value_reported: 4.62 µM (inactive)

compound: C/C=C\C(C)=C/C(C)C(=O)CC(O)CC1CC(=O)NC(=O)C1 (stereo not drawn)
value_reported: 20.6 µM (inactive)

compound: CC1NCCC(CC(=O)O)C1CC(=O)O (stereo not drawn)
value_reported: > 100 µM (inactive)

compound: O=C1c2ccccc2C(=O)N1c1nc(-c2ccc(Cl)cc2)cc(N2N=C(c3ccc(Br)cc3)CC2c2ccccc2)n1 (stereo not drawn)
value_reported: 1.29 µM (inactive)

Moving on to the next compound.
Fill in: GI50 of CC(=O)c1ccccc1NC(=O)C(=O)C(C(=O)c1ccccc1-c1ccccc1)C1OC(=O)c2ccccc21 (stereo not drawn) is ___ 18.7 µM (inactive)
